- Tested on: breast cancer cells (MDA-MB-468)
- Experiment notes: Cancer cell line growth inhibition, Sulforhodamine B assay, MDA-MB-468
- Type: cell-based
- Condition parameters: Homo sapiens, MDA-MB-468, MDA-MB-468 breast cancer cell line; read-out: Cancer Cell Line GI50 Range MDA-MB-468
Measured GI50 of individual entries

# count of solved cases: 2
// query GI50 value for entry COc1cccc(Oc2cc(NCCN3CCOCC3)n3ncc(-c4ccc(C(=O)NC5CC5)c(C)c4)c3n2)c1
100 to 500 nM

What does the record list as GI50 for Cc1cc(-c2cnn3c(NCC4CCOCC4)cc(N[C@H]4CC[C@H](O)CC4)nc23)ccc1C(=O)NC1CC1 ?
100 to 500 nM

More entries:
May I ask what GI50 has been recorded for Cc1cc(-c2cnn3c(NCC4CCOCC4)cc(NC4(CO)CCOCC4)nc23)ccc1C(=O)NC1CC1 ?
100 to 500 nM

Would you kindly share the measured GI50 for Cc1cc(-c2cnn3c(NCCN4CCCCC4)cc(Oc4cccc(F)c4)nc23)ccc1C(=O)NC1CC1 ?
100 to 500 nM

Entry under review: Cc1cc(-c2cnn3c(NCC4CCOCC4)cc(NCC4CCOCC4)nc23)ccc1C(=O)NC1CC1 . Reported GI50?
100 to 500 nM

Any idea what its GI50 is? The molecule is Cc1cc(-c2cnn3c(NCC4CCOCC4)cc(N[C@H]4CCC[C@@H]4O)nc23)ccc1C(=O)NC1CC1
≤ 100 nM

Recorded GI50 for COC[C@@H](Nc1cc(NCC2CCOCC2)n2ncc(-c3ccc(C(=O)NC4CC4)c(C)c3)c2n1)C(C)C , please?
100 to 500 nM

Bench note: what GI50 did Cc1cc(-c2cnn3c(NC[C@H]4CC[C@@H](O)CC4)cc(Oc4cccnc4)nc23)ccc1C(=O)NC1CC1 show?
≤ 100 nM

GI50 lookup needed for Cc1cc(-c2cnn3c(NCCN4CCN(C)CC4)cc(Oc4cccc(F)c4)nc23)ccc1C(=O)NC1CC1 , thanks.
≤ 100 nM

For Cc1cc(-c2cnn3c(NCC4(CO)CCOCC4)cc(Oc4cccnc4)nc23)ccc1C(=O)NC1CC1 , what is its reported GI50?
> 500 nM

* * *

Form field: pIC50 (one value per entry).
- Test target: human TTK (Homo sapiens, UniProt P33981)
- Construct: Active TTK was purchased from Invitrogen as an amino terminal GST fusion of full length human TTK; purchased Invitrogen
- Sequence (P33981 whole entry, the tested form may be a part): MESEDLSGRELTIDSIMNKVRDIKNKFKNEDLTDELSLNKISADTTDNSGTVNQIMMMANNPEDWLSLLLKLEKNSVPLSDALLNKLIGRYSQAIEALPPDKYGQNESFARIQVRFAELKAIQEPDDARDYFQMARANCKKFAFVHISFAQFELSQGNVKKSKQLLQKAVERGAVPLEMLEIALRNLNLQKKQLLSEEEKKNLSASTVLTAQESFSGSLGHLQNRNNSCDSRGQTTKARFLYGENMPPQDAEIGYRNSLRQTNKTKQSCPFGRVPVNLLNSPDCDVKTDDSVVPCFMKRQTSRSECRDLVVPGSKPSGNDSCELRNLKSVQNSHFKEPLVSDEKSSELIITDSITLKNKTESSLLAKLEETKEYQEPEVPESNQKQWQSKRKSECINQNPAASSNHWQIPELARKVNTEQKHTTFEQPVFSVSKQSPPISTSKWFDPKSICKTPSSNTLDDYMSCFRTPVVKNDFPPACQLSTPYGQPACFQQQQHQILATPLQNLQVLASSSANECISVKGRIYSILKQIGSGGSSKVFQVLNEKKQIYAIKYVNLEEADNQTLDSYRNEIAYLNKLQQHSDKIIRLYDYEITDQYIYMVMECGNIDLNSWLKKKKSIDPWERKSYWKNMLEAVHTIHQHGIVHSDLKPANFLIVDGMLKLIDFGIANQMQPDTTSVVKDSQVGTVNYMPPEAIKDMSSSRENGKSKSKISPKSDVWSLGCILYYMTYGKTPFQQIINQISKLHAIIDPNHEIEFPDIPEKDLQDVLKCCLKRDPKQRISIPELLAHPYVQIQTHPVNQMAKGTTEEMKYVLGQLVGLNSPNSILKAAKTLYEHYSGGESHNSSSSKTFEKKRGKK
- Experiment notes: TTK inhibition assay (indirect ELISA)
- Type: biochemical
- Condition parameters: 100 μM ATP; read-out: TTK IC50 Range
pIC50: −log10 of the molar value.

Known pIC50 results, listed for orientation:
Returns the measured pIC50 for the input compound. Input: Cc1cc(-c2cnn3c(NCCN4CCOCC4)cc(Oc4cccc(S(C)(=O)=O)c4)nc23)ccc1C(=O)NC1CC1 [Example C86]
6.30 to 7.00

pIC50 lookup needed for Cc1cc(-c2cnn3c(NCC4CCOCC4)cc(-c4ccncc4)nc23)ccc1C(=O)NC1CC1 [Example C150] , thanks.
> 7.00

Could you tell me which pIC50 is on file for COc1cccc(Oc2cc(NCCN3CCOCC3)n3ncc(-c4ccc(C(=O)NC5CC5)c(C)c4)c3n2)c1 [Example C85] ?
> 7.00

Pending compound:
Entry under review: Cc1cc(-c2cnn3c(NCC4(O)CCOCC4)cc(Oc4cccnc4)nc23)ccc1C(=O)NC1CC1 [Example C98] . Reported pIC50?
> 7.00
